Test: NCI Yeast Anticancer Drug Screen. Data for the sgs1 mgt1 strain (AID 161);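 also: 0% = growth of cultures given vehicle only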
Settings: S. cerevisiae sgs1 mgt1 strain, at 50.0 µM, stronger effect = higher value
The panel holds about 79,000 compounds, 15% with a hit somewhere; the sample as a whole holds those more often.
recorded_metric: growth inhibition (%)
Write the answer as a number in %, unit excluded.

Observe how each entry below is paired with its result.
{"molecule": "O=C1C2ON3c4ccccc4C(=O)C3(c3ccccc3)C2C(=O)N1c1ccccc1 (stereo unspecified)", "result_unit": "%", "growth inhibition": -63}
{"molecule": "CCOC(=O)c1cn2ccccc2c1C(=O)OCC", "result_unit": "%", "growth inhibition": -7.45}
{"molecule": "c1ccc2c(c1)CCCN2c1nc(N2CCCCC2)nc(N2CCOCC2)n1", "result_unit": "%", "growth inhibition": 22.6}
{"molecule": "NC(CC(=O)O)CC(=O)O", "result_unit": "%", "growth inhibition": 1.8}
{"molecule": "COC(=O)/C(C#N)=C(/NCc1ccccc1)Nc1ccccc1", "result_unit": "%", "growth inhibition": -8.2}

Supply reported growth inhibition belonging to this molecule: CCOC(=O)/C(C#N)=C/c1ccnc2ccccc12
-30.8

Quick one: give measured growth inhibition for CCOC(=O)C(NC(=O)C(CCCCNP(=O)(OCC)OCC)NC(=O)C(C)NC(C)=O)C(C)C (stereo unspecified)
-8.4

Specify measured growth inhibition for COc1ccc([N+](=O)[O-])c2c(C)cc(=O)[nH]c12 .
21.9

Let me know recorded growth inhibition for CSCc1cc(C)ccc1NC(C)=O , thanks.
-0.75

Quickly give me recorded growth inhibition for N#Cc1c(-c2ccccc2)nc(-c2ccccc2)sc1=S
42

Give recorded growth inhibition. O=C(NNC(=O)c1ccc2ccccc2c1)c1ccc(F)cc1
3.8

Using known records, supply growth inhibition for CC1CC(=O)CC(C)C1 (stereo unspecified)
-10.5

Report growth inhibition, nothing else, for this molecule: CCC(=O)C12CCCC1=NC(=N)N=C2C1=NC(=N)N=C2CCCC21C(=O)CC (stereo unspecified)
-14.2

Identify growth inhibition associated with the molecule Cc1cc(OCCCC(=O)O)ccc1Cl
54.1

Name the recorded growth inhibition of the molecule listed here: CCOC(=O)C(C)N1CCCCCCC1 (stereo unspecified)
-2.3

Give a short answer stating reported growth inhibition for O=C(Nc1ccccc1)Nc1cc(C(F)(F)F)ccc1Cl .
4.15

Quick one: give measured growth inhibition for CCCc1[nH]n(-c2ccccc2)c(=O)c1N=Nc1ccc(Cl)cc1
-9.95

Find the measured growth inhibition of O=[N+]([O-])c1ccc(Cn2on2-c2ccccc2)cc1 and report it.
9.1

Hello, please tell me recorded growth inhibition for this one: CCOC(=O)c1ccc(NC(=O)Sc2ccccc2C)cc1
11.3

Quick one: give measured growth inhibition for OC1=CC(C2CCCCC2)CC(O)=C1 (stereo unspecified)
-4.75

Provide only the value of recorded growth inhibition for O=C1c2ccccc2C(=O)N1CCc1ccccn1
3.95
